# assay-summary: Pharmacokinetic analysis, plasma concentration by LC/MS
# Assay type: in vivo
# condition-context: rat, plasma; rats; MTX 1 mg/kg only; time 1 hr
attribute-measured: concentration at 1 hr (ng/mL)
// return numeric value only (unit: ng/mL, not printed)

Input: Value lookup for concentration at 1 hr; key = CN(Cc1cnc2nc(N)nc(N)c2n1)c1ccc(C(=O)N[C@@H](CCC(=O)O)C(=O)O)cc1 [MTX, Methotrexate]
Output: 747

* * *

For each record, write down the corresponding Body weight (g) 15th day.
# assay-summary: Analysis of body weights in AIA model
# Type: in vivo, Lewis rats
# condition-context: Table 19 study; compound 10 mg/kg once per day P.O.
// return numeric value only (unit: g, not printed)

Input: Value lookup for Body weight (g) 15th day; key = O=C(NO)c1ccc(CN(C(=O)N2CCOCC2)c2cccc(C(F)(F)F)c2)cc1 [SM374]
Output: 159.2

Input: Value lookup for Body weight (g) 15th day; key = COc1cccc(N(Cc2ccc(C(=O)NO)cc2)C(=O)N2CCOCC2)c1 [SM484]
Output: 160.7

Input: Value lookup for Body weight (g) 15th day; key = O=C(NO)c1ccc(CN(C(=O)N2CCOCC2)c2cccc(F)c2)cc1 [SM530]
Output: 161.1

Input: Value lookup for Body weight (g) 15th day; key = O=C(NO)c1ccc(CN(C(=O)N2CCCOCC2)c2cccc(F)c2)cc1 [SM652]
Output: 158.8

Input: Value lookup for Body weight (g) 15th day; key = O=C(NO)c1ccc(CN(C(=O)N2CCOCC2)c2ccc(F)cc2F)cc1 [SM413]
Output: 157.4

* * *

# assay-summary: Pharmacokinetic analysis, plasma concentration by LC/MS
# Type: in vivo
# condition-context: rat, plasma; rats; MTX 1 mg/kg only
attribute-measured: Tmax (min)
// return numeric value only (unit: min, not printed)

Input: Value lookup for Tmax; key = CN(Cc1cnc2nc(N)nc(N)c2n1)c1ccc(C(=O)N[C@@H](CCC(=O)O)C(=O)O)cc1 [MTX, Methotrexate]
Output: 30

* * *

# assay-summary: Pharmacokinetic analysis, plasma concentration by LC/MS
# Format: in vivo
# condition-context: rat, plasma; rats; MTX 1 mg/kg only
attribute-measured: half-life (min)
// return numeric value only (unit: min, not printed)

Input: Value lookup for half-life; key = CN(Cc1cnc2nc(N)nc(N)c2n1)c1ccc(C(=O)N[C@@H](CCC(=O)O)C(=O)O)cc1 [MTX, Methotrexate]
Output: 54

* * *

# assay-summary: Pharmacokinetic analysis, plasma concentration by LC/MS
# Format: in vivo
# condition-context: rat, plasma; rats; MTX 1 mg/kg only; time 2 hr
attribute-measured: concentration at 2 hr (ng/mL)
// return numeric value only (unit: ng/mL, not printed)

Input: Value lookup for concentration at 2 hr; key = CN(Cc1cnc2nc(N)nc(N)c2n1)c1ccc(C(=O)N[C@@H](CCC(=O)O)C(=O)O)cc1 [MTX, Methotrexate]
Output: 245

* * *

For each record, write down the corresponding Body weight (g) 11th day.
# assay-summary: Analysis of body weights in AIA model
# Type: in vivo, Lewis rats
# condition-context: Table 19 study; compound 10 mg/kg once per day P.O.
// return numeric value only (unit: g, not printed)

Input: Value lookup for Body weight (g) 11th day; key = `O=C(NO)c1ccc(CN(C(=O)N2CCOCC2)c2cccc(C(F)(F)F)c2)cc1`
Output: 153.9

Input: Value lookup for Body weight (g) 11th day; key = `O=C(NO)c1ccc(CN(C(=O)N2CCOCC2)c2ccc(F)cc2F)cc1`
Output: 151.4

Input: Value lookup for Body weight (g) 11th day; key = `O=C(NO)c1ccc(CN(C(=O)N2CCCOCC2)c2cccc(F)c2)cc1`
Output: 157.6

Input: Value lookup for Body weight (g) 11th day; key = `COc1cccc(N(Cc2ccc(C(=O)NO)cc2)C(=O)N2CCOCC2)c1`
Output: 154.7

Input: Value lookup for Body weight (g) 11th day; key = `O=C(NO)c1ccc(CN(C(=O)N2CCOCC2)c2cccc(F)c2)cc1`
Output: 153.0

// provenance: patent US20220296599A1
